The reported numbers originate from patent US7365069B2.

# Tested on: Male Wistar rats
# Experiment Summary: Gastroulcerogenic potential (stomach lesions after the paw edema test)
# Type: in vivo
# Condition Parameters: 10 mg/kg body weight, oral, rat
# Protocol: The carrageenan paw edema test is performed as described by Winter et al (Proc. Soc. Exp. Biol. Med, 111, 544, 1962). Male Wistar rats are selected and the body weights are equivalent within each group. The rats are fasted for eighteen hours with free access to water. […] Paw volume is measured using water plethysmograph before and after 3 hours of carrageenan injection. […] The stomach lesions are calculated.
Value Kind: Gastroulcerogenic potential (% incidence of ulceration) (%)

{"Compound": "CSc1ccc(-c2nc(SC)c(C#N)c(=O)n2-c2ccc(F)cc2)cc1 [Example 5]", "Assayed Target": "Male Wistar rats", "Result Value": 37.5}
{"Compound": "CSc1ccc(-n2c(-c3ccc(Cl)cc3)nc(SC)c(C#N)c2=O)cc1 [Example 1]", "Assayed Target": "Male Wistar rats", "Result Value": 75}
{"Compound": "CSc1nc(-c2ccc(S(C)(=O)=O)cc2)n(-c2ccc(C)cc2)c(=O)c1C#N [Example 7]", "Assayed Target": "Male Wistar rats", "Result Value": 25}
{"Compound": "CSc1ccc(-c2nc(SC)c(C#N)c(=O)n2-c2ccc(C)cc2)cc1 [Example 6]", "Assayed Target": "Male Wistar rats", "Result Value": 25}
{"Compound": "CSc1ccc(-c2nc(SC)c(C#N)c(=O)n2-c2ccc(C(C)C)cc2)cc1 [Example 9]", "Assayed Target": "Male Wistar rats", "Result Value": 0}
{"Compound": "CSc1ccc(-n2c(-c3ccc(F)cc3)nc(SC)c(C#N)c2=O)cc1 [Example 2]", "Assayed Target": "Male Wistar rats", "Result Value": 25}
{"Compound": "CSc1ccc(-c2nc(SC)c(C#N)c(=O)n2-c2ccc(C)c(C)c2)cc1 [Example 10]", "Assayed Target": "Male Wistar rats", "Result Value": 0}
{"Compound": "CSc1ccc(-n2c(-c3ccc(C(F)(F)F)cc3)nc(SC)c(C#N)c2=O)cc1 [Example 4]", "Assayed Target": "Male Wistar rats", "Result Value": 25}

* * *

# Assayed Target: COX-2 (Homo sapiens, UniProt P35354)
# Construct: incubation of human blood with lipopolysaccharide (LPS), which induces COX-2 production in the blood; endogenous in cells; host or cells: fresh human whole blood from volunteers, treated with aspirin and then LPS
# Sequence (P35354 18-604): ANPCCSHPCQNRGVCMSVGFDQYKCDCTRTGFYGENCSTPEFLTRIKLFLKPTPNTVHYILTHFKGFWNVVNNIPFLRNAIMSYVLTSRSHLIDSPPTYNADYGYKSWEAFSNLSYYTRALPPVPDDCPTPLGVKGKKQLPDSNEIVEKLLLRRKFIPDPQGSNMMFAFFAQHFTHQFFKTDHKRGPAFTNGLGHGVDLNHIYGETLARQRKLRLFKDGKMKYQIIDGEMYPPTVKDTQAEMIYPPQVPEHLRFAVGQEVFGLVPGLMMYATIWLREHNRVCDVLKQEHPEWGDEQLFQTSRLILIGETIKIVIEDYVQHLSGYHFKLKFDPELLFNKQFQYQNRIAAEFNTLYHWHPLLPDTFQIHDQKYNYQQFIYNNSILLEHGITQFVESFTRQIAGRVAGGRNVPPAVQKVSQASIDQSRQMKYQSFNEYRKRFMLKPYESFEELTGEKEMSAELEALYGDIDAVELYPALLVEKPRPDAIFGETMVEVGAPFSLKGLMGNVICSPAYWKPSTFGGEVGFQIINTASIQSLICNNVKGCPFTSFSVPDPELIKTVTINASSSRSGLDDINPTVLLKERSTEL
# Experiment Summary: Human whole blood assay, COX-2 inhibition (PGE2 ELISA after LPS)
# Type: cell-based
# Condition Parameters: 0.25 μM, LPS 24 h

{"Compound": "CSc1nc(-c2ccccc2)n(-c2ccc(F)cc2)c(=O)c1C#N [Example 17]", "inhibition at 0.25 µM": "16.2%"}
{"Compound": "CSc1nc(-c2ccc(S(C)(=O)=O)cc2)n(-c2ccc(C)c(C)c2)c(=O)c1C#N [Example 12]", "inhibition at 0.25 µM": "36.5%"}
{"Compound": "CCc1ccc(-n2c(-c3ccc(SC)cc3)nc(SC)c(C#N)c2=O)cc1 [Example 14]", "inhibition at 0.25 µM": "28.2%"}
{"Compound": "COc1cc(-n2c(-c3ccc(SC)cc3)nc(SC)c(C#N)c2=O)cc(OC)c1OC [Example 13]", "inhibition at 0.25 µM": "33.5%"}
{"Compound": "CNc1nc(-c2ccc(SC)cc2)n(-c2ccc(C)cc2)c(=O)c1C#N [Example 54]", "inhibition at 0.25 µM": "72.1%"}
{"Compound": "CSc1nc(-c2ccc(S(C)(=O)=O)cc2)n(-c2ccc(C)cc2)c(=O)c1C#N [Example 7]", "inhibition at 0.25 µM": "31.7%"}
{"Compound": "CCOc1ccc(-n2c(-c3ccc(SC)cc3)nc(SC)c(C#N)c2=O)cc1 [Example 21]", "inhibition at 0.25 µM": "7.79%"}
{"Compound": "CSc1ccc(-n2c(-c3ccc(C)cc3)nc(SC)c(C#N)c2=O)cc1 [Example 20]", "inhibition at 0.25 µM": "7.67%"}
{"Compound": "CSc1nc(-c2ccc(S(C)(=O)=O)cc2)n(-c2ccc(C(C)C)cc2)c(=O)c1C#N [Example 11]", "inhibition at 0.25 µM": "31.1%"}
